Cited source: the supplement of paper PMC9170038

Tested on: MS2 coat protein
experimental details: apparent KD of MS2 coat protein; designed switch direction (-1 OFF switch, 1 ON switch): -1; higher = weaker reporter binding
details: Eterna round: R95; input ligand: microRNA oligo, concentration not stated
What apparent KD of MS2 coat protein was measured for each of the following?
Number only, in nM; omit the unit.

Find the recorded apparent KD of MS2 coat protein belonging to ACUUAUAGAGGAUAUACAGUUUAUUACAUGAGGAUCACCCAUGUUCUUCAAUGUAUAUAAGUAGAAGGCUAAGGAA [EX-5 Malc#5] (puzzle: Exclusion 5) and report it.
25.2

Next sequence: AGGUGGAAGCAGGAUAUGCUUGUAUAAUUGAUAGCAGAAGGGCUAACAUGAGGAUCACCCAUGUAAGAGGUGUA [JR_E6_Sub058] (puzzle: Exclusion 6)
177

Check GGAAAGCAAGGAUAUACGAGGAGAAGGAGGAAAGUAAAAGGACAUGAGGAUCACCCAUGUAGAAGGUGCGAGAG [JR_Exclu2_Sub040] (puzzle: Exclusion 2) too.
29.7
